Origin of measurements: patent US12404268B2

Quick reference: ED50 (dose at which epileptic spike frequency is suppressed to 50%) of the listed items.
- Tested on: SCN1A loss-of-function genetic mutation mice (epileptic spike)
- assayText: Evaluation of epileptic spike using SCN1A-mutated animal
- Format: in vivo, mouse
- measurementConditions: F1 SCN1A-mutated mice; spike frequency over 3 hours before and after administration

O=c1c2cc(F)ccc2nc(Nc2cncc(F)c2)n1-c1ccccc1 [Example 40]
0.12 mg/kg, p.o.
O=c1c2ccccc2nc(Nc2cccnc2)n1-c1ccccc1 [Example 14]
5.83 mg/kg, p.o.
O=c1c2cc(F)ccc2nc(Nc2cccnc2)n1-c1ccccc1 [Example 12]
0.18 mg/kg, p.o.
N#Cc1ccc2nc(Nc3cccnc3)n(-c3ccccc3)c(=O)c2c1 [Example 3]
0.66 mg/kg, p.o.
O=c1c2cc(F)cc(F)c2nc(Nc2cccnc2)n1-c1ccccc1 [Example 32]
1.48 mg/kg, p.o.

Q) ED50 (dose at which epileptic spike frequency is suppressed to 50%) of Cc1ccccc1-n1c(Nc2cccnc2)nc2ccc(C#N)cc2c1=O [Example 109] on SCN1A loss-of-function genetic mutation mice (epileptic spike)?
A) 0.19 mg/kg, p.o.

Q) // fetch SCN1A loss-of-function genetic mutation mice (epileptic spike) ED50 (dose at which epileptic spike frequency is suppressed to 50%) for Cc1ccccc1-n1c(Nc2cncc(F)c2)nc2ccc(C#N)cc2c1=O [Example 114]
A) 0.044 mg/kg, p.o.

----------
inhibition at 100 µM overview
- Tested on: neurons induced to differentiate from SCN1A gene deficient human iPS cells
- assayText: Test for measuring hyperexcitation suppression activity (spontaneous calcium oscillation frequency)
- Format: cell-based
- measurementConditions: Homo sapiens, Neuron; @100 μM; read-out: inhibition rate
Numbers only; they are read as %.

Solved cases (3 shown):
O=c1c2cc(F)ccc2nc(Nc2cccnc2)n1CCO
6
CO[C@H]1CN(C)CC[C@H]1n1c(Nc2cccnc2)nc2ccc(F)cc2c1=O
13
O=c1c2cc(F)ccc2nc(Nc2cccnc2)n1-c1cncc(F)c1
54

Q) Could you share which inhibition at 100 µM value was measured for `COc1ccc2nc(Nc3cccnc3)n(-c3ccccc3)c(=O)c2c1` ?
A) 20

Q) What inhibition at 100 µM value was documented for this compound, `Cc1ccc2c(=O)n(-c3ccccc3)c(Nc3cccnc3)nc2c1` ?
A) 31

Q) Which inhibition at 100 µM value is on record for `O=c1c2cc(F)ccc2nc(Nc2cccnc2)n1C1CCN(C2CC2)CC1` ?
A) 100

Q) Entry `O=c1c2cc(F)ccc2nc(Nc2cccnc2)n1CCC(F)(F)F` : reported inhibition at 100 µM = ?
A) 100

Q) Dear colleague, I am looking for the recorded inhibition at 100 µM of the following compound: `O=c1c2ccccc2nc(Nc2ccc3oncc3c2)n1-c1ccccc1`
A) 10

Q) If you can, please state the reported inhibition at 100 µM value of `COc1cccc2nc(Nc3cccnc3)n(-c3ccccc3)c(=O)c12` .
A) 38

Q) Item under review: `COc1cc(F)cc2c(=O)n(-c3ccccc3)c(Nc3cccnc3)nc12` . Reported inhibition at 100 µM?
A) 17

----------
- Test system: neurons induced to differentiate from SCN1A gene deficient human iPS cells
- assayText: Test for measuring hyperexcitation suppression activity (spontaneous calcium oscillation frequency)
- Type: cell-based
- measurementConditions: Homo sapiens, Neuron; @100 μM; read-out: inhibition rate
Label 1 when inhibition at 100 µM is at or above 70%; otherwise label 0.

Some entries whose results are on file:
CN1CC[C@@H](n2c(Nc3cccnc3)nc3ccc(F)cc3c2=O)C1
1
COc1cccc2c(=O)n(-c3ccccc3)c(Nc3cccnc3)nc12
0
Nc1ccc2nc(Nc3cccnc3)n(-c3ccccc3)c(=O)c2c1
1
Cc1cccnc1Nc1nc2ccc(F)cc2c(=O)n1-c1ccccc1
0
Cc1cc(Nc2nc3ccc(Cl)cc3c(=O)n2-c2ccccc2)ncn1
0
CN1CC[C@@H](n2c(Nc3cccnc3)nc3ccccc3c2=O)C1
1
COc1cnccc1Nc1nc2ccc(F)cc2c(=O)n1-c1ccccc1
0

Then there is this molecule:
Q) Decide: inhibition at 100 µM of `O=c1c2cc(F)ccc2nc(Nc2cnoc2)n1-c1ccccc1` >= 70%?
A) 1
